src = the supplement of paper PMC10567573

# Procedure Text: protein stability index of a GFP-peptide fusion (GPS, HEK-293T) (PSI 1-6); higher = more stable;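 note: 24-mer peptide tiles fused after GFP, lentivirally expressed, FACS-sorted into six equal bins by GFP/DsRed ratio, decoded by Illumina sequencing, PSI is the read-weighted mean bin number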
# Assay Setup: treatment: DMSO; c terminus: a fixed tail appended
Readout Kind: protein stability index

Take a look at these entries with their results.
INSERT INTO results (residues, reported_value) VALUES
  ('AEEESSGGEEEDEDENIEVVYSKA [EIF5]', 5.22),
  ('LSRYQNELAGVDTELLAERFYYQA [SMG5]', 2.7);

## Input For VPQALSATTYKHGVLTRKTHADMD [PSD2] , what is its reported protein stability index?
## Output 4.47

## Input Please answer likewise for SNSRQLKWLSCGFMLEIVTPTSLS [FBXO33]
## Output 3.39

## Input Please answer likewise for GFSSGRHRWQVDLQLGDGGGCTVG [TRIM15]
## Output 2.93

## Input Please answer likewise for EEAVTVLEDLESELDDPGQPVSLR [ZNF24]
## Output 5.58

## Input Please answer likewise for TQEGAKDLEVDMNKTEVTPRLWTT [ACSBG2]
## Output 3.55

## Input Please answer likewise for TLKEAYVQKLVKVCTDTDRWSLIS [TENT5C]
## Output 2.58

## Input Please answer likewise for TKKRKTFDSSRQRAEGTDIPTVKP [ZC2HC1A]
## Output 4.86
